Test system: OVCAR-3 ovarian
Experiment: NCI-60 one-dose screen, 48 h (100 = growth as untreated, 0 = no growth, -100 = all killed)
Conditions: 10 µM
This is part of a sample that, as a whole, favours compounds with a hit. Of some 83,000 tested, about 20% had one in any assay.
Listing: growth of selected compounds
Give the value, in units of %, as a plain number.

[
  {
    "compound": "O=C(CSc1nnc(-c2ccc(Cl)cc2)o1)Nc1ccc(C(=O)/C=C/c2ccc(Cl)cc2)cc1",
    "test-system": "OVCAR-3 ovarian",
    "growth (%)": 103
  },
  {
    "compound": "CC(C)[N+]1(C)C2CC[C@@H]1CC(OC(=O)C(CO)c1ccccc1)C2 (stereo partly drawn)",
    "test-system": "OVCAR-3 ovarian",
    "growth (%)": 125
  },
  {
    "compound": "O=[N+]([O-])c1cc(Cl)cc(Cl)c1O",
    "test-system": "OVCAR-3 ovarian",
    "growth (%)": 109
  },
  {
    "compound": "COc1cc(-c2nn(-c3cccc(NC(=O)CCN4CCN(Cc5ccccc5)CC4)c3)cc2-c2ccncc2)ccc1Cl",
    "test-system": "OVCAR-3 ovarian",
    "growth (%)": 7.04
  },
  {
    "compound": "O=C(CN1CCN(C(=O)c2ccccc2)CC1)Nc1ccccc1SCc1ccccc1",
    "test-system": "OVCAR-3 ovarian",
    "growth (%)": 91.5
  }
]

Input line: Given CCC(CC)n1c(C)cc(=O)n1C(CC)CC , respond with its growth.
Output line: 113

Input line: Tell me its growth given CCCCC/C=C/C/C=C/CCCCCCCC1=NC(C)(C)CN1C(C)C as the entry.
Output line: 17.4

Input line: Note down growth recorded for CC(C)(C)OC(=O)N1CCc2c(sc3ncnc(N/N=C/c4cccc5ccccc45)c23)C1
Output line: 46.4

Input line: Look up growth of C=C/C(C)=C/C[C@]1(C)[C@H](C)[C@@H](OC(=O)CCC)[C@H](O)[C@@]23C(=C[C@H](OC)C[C@@H]12)[C@@H](OC(=O)CCC)O[C@H]3OC(C)=O and report it.
Output line: -86.5

Input line: Return value of growth for input Cc1ccc(NCCNCC(C)(C)O)c2c(=O)c3ccc(Cl)cc3sc12 , no commentary.
Output line: -13.4

Input line: Give recorded growth. COc1cc2cc(Oc3ccc(NC(=O)c4cc(C(F)(F)F)cc(C(F)(F)F)c4)cc3)c(C)nc2cc1OC
Output line: 15.2

Input line: Input CC(=O)N[C@H](C(=O)N[C@@H](CCCNC(=N)N)C(=O)N[C@@H](CCCCN)C(=O)N[C@@H](CCCNC(=N)N)C(=O)N[C@]1(C)CCCCCC/C=C\CCC[C@@](C)(C(=O)N[C@@H](CCCNC(=N)N)C(=O)N[C@@H](CCC(=O)O)C(=O)N[C@@H](CC(C)C)C(=O)N[C@H](C(=O)N[C@@H](CCC(=O)O)C(N)=O)C(C)C)NC(=O)[C@H](CCC(N)=O)NC(=O)[C@H](CC(C)C)NC(=O)[C@H](CC(C)C)NC(=O)[C@H](CCCNC(=N)N)NC(=O)[C@H](CCCNC(=N)N)NC(=O)[C@H](CC(C)C)NC1=O)C(C)C , output reported growth.
Output line: -38.9

Input line: Given COc1cc(-c2csc(NC(=O)Nc3cc(C(F)(F)F)cc(C(F)(F)F)c3)n2)cc(OC)c1OC , respond with its growth.
Output line: -3.97

Input line: Identify measured growth associated with CCOS(=O)(=O)c1c(C(C)C)cc(C(C)C)cc1C(C)C
Output line: 103

Input line: Please give the documented growth of O=C(CC(CC(=O)c1ccccc1)c1ccccc1O)c1ccccc1
Output line: 94.3

Input line: Give a short answer stating reported growth for COc1cccc2ccc(CC(O)(c3ccccc3)c3ccccc3)nc12 .
Output line: 80.3

Input line: Retrieve growth measured for N#Cc1c(-c2ccc(Cl)cc2)n(O)c2ccccc12 and print it.
Output line: 4.13

Input line: For COc1ccc(/C(C#N)=C/c2ccccc2OC)cc1 , write its growth.
Output line: 25.8

Recorded values, source PubChem BioAssay (NCI).
